Give phosphorylation enrichment for every item shown.
target: Jak2 (UniProt O60674); experiment: phosphorylation enrichment, bacterial display (enrichment ratio); higher = better substrate or ligand; peptides without Tyr show the background;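 also: 11-residue human phosphosite peptides and single-mutation variants displayed on the E. coli surface, counted by deep sequencing, each peptide's frequency after selection divided by its frequency in the unselected input library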;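 also: frequency after pTyr selection over input frequency; kinase dosed for 20-30% of maximal phosphorylation in three min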
Sequence (O60674 whole entry, looked up): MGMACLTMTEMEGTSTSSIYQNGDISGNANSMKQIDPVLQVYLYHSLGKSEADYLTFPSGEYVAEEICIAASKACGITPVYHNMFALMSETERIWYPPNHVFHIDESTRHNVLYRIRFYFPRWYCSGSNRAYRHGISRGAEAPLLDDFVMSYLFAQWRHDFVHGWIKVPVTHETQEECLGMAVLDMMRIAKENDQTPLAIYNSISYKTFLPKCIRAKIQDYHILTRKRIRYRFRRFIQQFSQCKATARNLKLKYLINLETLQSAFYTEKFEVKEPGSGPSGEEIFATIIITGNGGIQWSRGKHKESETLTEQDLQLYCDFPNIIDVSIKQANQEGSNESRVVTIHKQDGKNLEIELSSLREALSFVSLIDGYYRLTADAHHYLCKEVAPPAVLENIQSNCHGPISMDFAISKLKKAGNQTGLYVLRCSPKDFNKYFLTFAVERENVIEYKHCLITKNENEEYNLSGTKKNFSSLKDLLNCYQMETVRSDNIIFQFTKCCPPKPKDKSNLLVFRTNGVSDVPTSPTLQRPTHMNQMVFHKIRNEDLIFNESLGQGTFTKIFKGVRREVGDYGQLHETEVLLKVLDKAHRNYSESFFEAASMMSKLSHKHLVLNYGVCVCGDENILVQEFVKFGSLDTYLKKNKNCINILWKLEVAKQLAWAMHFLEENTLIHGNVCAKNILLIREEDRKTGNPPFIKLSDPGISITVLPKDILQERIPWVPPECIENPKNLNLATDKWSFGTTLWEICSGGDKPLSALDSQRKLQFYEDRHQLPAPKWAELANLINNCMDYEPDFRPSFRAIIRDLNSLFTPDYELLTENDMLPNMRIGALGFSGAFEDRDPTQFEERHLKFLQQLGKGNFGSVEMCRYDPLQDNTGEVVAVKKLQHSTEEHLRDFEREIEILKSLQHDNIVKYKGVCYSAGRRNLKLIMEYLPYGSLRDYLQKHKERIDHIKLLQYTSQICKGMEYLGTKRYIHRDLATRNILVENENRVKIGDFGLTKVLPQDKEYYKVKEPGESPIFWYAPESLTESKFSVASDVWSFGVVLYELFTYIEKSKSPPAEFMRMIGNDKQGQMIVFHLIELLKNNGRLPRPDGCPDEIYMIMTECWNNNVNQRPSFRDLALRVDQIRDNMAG

Kindly give each listed record's phosphorylation enrichment.
1. MFCAGYDTKQE [F10_Y407]
2. GSERDYTFDEL [EIF2S2_Y174_E177D_YF]

Output line:
1: 1.38; 2: 1.21

###

Give phosphorylation enrichment for every item shown.
target: Jak2 (UniProt O60674); assay: phosphorylation enrichment, bacterial display (enrichment ratio); higher = better substrate or ligand; peptides without Tyr show the background
Answers are plain numbers.

[
  {
    "construct sequence": "ANVKWYRNGRE",
    "phosphorylation enrichment": 0.665
  }
]

Kindly give each listed record's phosphorylation enrichment.
1. PSRKDYETFQP [CTNND2_Y1154_YF]
2. LRRFIYRPPDR [OTOF_Y1231]

Output line:
1.11
0.809
